SYSTEM: Epidermal growth factor receptor (Homo sapiens, UniProt P00533, L858R)
Sequence (P00533 25-1210 L858R limits assumed): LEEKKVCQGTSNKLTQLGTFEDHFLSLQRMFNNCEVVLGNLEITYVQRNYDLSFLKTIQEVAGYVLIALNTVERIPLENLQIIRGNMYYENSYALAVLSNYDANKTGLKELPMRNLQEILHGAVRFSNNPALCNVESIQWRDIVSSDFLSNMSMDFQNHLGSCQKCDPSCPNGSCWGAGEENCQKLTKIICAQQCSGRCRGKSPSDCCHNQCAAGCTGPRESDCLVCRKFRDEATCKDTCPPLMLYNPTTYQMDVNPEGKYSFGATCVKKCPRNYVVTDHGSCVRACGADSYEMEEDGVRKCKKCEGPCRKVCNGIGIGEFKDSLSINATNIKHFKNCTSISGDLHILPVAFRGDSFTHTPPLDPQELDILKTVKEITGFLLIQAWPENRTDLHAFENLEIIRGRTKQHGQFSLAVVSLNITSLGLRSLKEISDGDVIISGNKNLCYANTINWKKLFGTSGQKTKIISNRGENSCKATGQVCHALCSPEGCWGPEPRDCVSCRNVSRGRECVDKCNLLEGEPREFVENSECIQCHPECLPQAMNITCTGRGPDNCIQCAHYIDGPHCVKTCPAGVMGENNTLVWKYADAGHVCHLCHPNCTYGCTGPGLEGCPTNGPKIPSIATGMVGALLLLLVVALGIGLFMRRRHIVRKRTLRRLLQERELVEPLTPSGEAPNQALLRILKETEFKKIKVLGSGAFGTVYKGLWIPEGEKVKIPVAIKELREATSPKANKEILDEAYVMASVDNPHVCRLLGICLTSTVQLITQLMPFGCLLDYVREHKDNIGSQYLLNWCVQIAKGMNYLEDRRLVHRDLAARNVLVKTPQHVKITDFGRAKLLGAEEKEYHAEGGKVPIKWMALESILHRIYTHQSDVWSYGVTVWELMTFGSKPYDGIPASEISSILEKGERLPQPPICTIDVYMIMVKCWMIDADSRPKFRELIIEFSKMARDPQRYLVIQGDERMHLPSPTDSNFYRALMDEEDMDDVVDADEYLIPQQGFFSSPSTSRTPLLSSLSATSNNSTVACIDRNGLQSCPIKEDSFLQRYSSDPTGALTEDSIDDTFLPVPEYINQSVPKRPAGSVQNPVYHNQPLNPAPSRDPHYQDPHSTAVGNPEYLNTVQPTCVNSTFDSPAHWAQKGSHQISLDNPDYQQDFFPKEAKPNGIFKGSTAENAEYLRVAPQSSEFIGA
PROCEDURE DETAILS: Inhibition of human GST-tagged EGFR L834R mutant expressed in Sf9 cells by luminescence assay
RECORDED METRIC: IC50 (nM)

Guide cases for IC50, answers given:
C[C@@H](Nc1ncnc2oc(-c3ccccc3)c(-c3ccccc3)c12)c1ccccc1	339
OC[C@@H](Nc1ncnc2oc(-c3ccccc3)c(-c3ccoc3)c12)c1ccccc1	44
CN(C)CCC(=O)Nc1cccc(-c2c(-c3ccccc3)oc3ncnc(N[C@H](CO)c4ccccc4)c23)c1	2
CC(=O)Nc1cccc(-c2c(-c3ccccc3)oc3ncnc(N[C@H](CO)c4ccccc4)c23)c1	29
CC(=O)Nc1ccc(-c2c(-c3ccccc3)oc3ncnc(N[C@H](CO)c4ccccc4)c23)cc1	23

I. OC[C@@H](Nc1ncnc2oc(-c3ccccc3)c(-c3ccco3)c12)c1ccccc1
II. OC[C@@H](Nc1ncnc2oc(-c3ccccc3)c(Cl)c12)c1ccccc1
Lab notebook, comparison: I versus II , higher IC50 goes to which? Indicate your choice by writing its label.
II
(II: 168 nM, I: 73 nM)

a. O=[N+]([O-])c1cccc(-c2c(-c3ccccc3)oc3ncnc(N[C@H](CO)c4ccccc4)c23)c1
b. CN(C)CCCCC(=O)Nc1cccc(-c2c(-c3ccccc3)oc3ncnc(N[C@H](CO)c4ccccc4)c23)c1
c. CN(C)CCCCCC(=O)Nc1cccc(-c2c(-c3ccccc3)oc3ncnc(N[C@H](CO)c4ccccc4)c23)c1
Your job: order these 3 records by IC50, ascending. Answer format: list of labels, ordered as asked.
b, a, c

A. OC[C@@H](Nc1ncnc2oc(-c3ccccc3)c(-c3ccccc3)c12)c1ccccc1
B. Nc1cccc(-c2c(-c3ccccc3)oc3ncnc(N[C@H](CO)c4ccccc4)c23)c1
For the pair A and B , which member has the lower IC50 number? In your reply, give the label of the chosen option.
B
(B: 22 nM, A: 52 nM)
